selectivity ratio values, listed per item
experiment: Therapeutic index, ratio of IC50 for human BJ cells to IC50 for human CCRF-CEM cells; format: cell-based; settings: BJ cells versus CCRF-CEM cells, read-out: Ratio IC50
METRIC_NAME: selectivity ratio

[[record]]
compound = "CC(C)[C@@H]1CC[C@]2(C(=O)O)CC[C@]3(C)[C@H](CC[C@@H]4[C@@]5(C)CC(Br)C(=O)C(C)(C)[C@@H]5CC[C@]43C)[C@@H]12 (mixture of isomers)"
metric_name = "selectivity ratio"
reported_value = "> 10"

[[record]]
compound = "CC(C)[C@@H]1CC[C@]2(C(=O)O)CC[C@]3(C)[C@H](CC[C@@H]4[C@@]5(C)CC(Br)(Br)C(=O)C(C)(C)[C@@H]5CC[C@]43C)[C@@H]12"
metric_name = "selectivity ratio"
reported_value = "> 10"

[[record]]
compound = "C=C(C)[C@@H]1CC[C@]2(C(=O)O)CC[C@]3(C)[C@H](CC[C@@H]4[C@@]5(C)C/C(=C/O)C(=O)C(C)(C)[C@@H]5CC[C@]43C)[C@@H]12"
metric_name = "selectivity ratio"
reported_value = "> 10"


====

selectivity ratio overview
assay: Therapeutic index, ratio of IC50 for human BJ cells to IC50 for human K562 cells; format: cell-based; settings: BJ cells versus K562 cells, read-out: Ratio IC50
METRIC_NAME: selectivity ratio

[[record]]
compound = "CC(C)[C@@H]1CC[C@]2(C(=O)O)CC[C@]3(C)[C@H](CC[C@@H]4[C@@]5(C)CC(Br)C(=O)C(C)(C)[C@@H]5CC[C@]43C)[C@@H]12 (mixture of isomers)"
metric_name = "selectivity ratio"
reported_value = "> 10"

[[record]]
compound = "CC(C)[C@@H]1CC[C@]2(C(=O)O)CC[C@]3(C)[C@H](CC[C@@H]4[C@@]5(C)CC(Br)(Br)C(=O)C(C)(C)[C@@H]5CC[C@]43C)[C@@H]12"
metric_name = "selectivity ratio"
reported_value = "> 10"

[[record]]
compound = "C=C(C)[C@@H]1CC[C@]2(C(=O)O)CC[C@]3(C)[C@H](CC[C@@H]4[C@@]5(C)C/C(=C/O)C(=O)C(C)(C)[C@@H]5CC[C@]43C)[C@@H]12"
metric_name = "selectivity ratio"
reported_value = 6.6


====

system: HCT-116; experiment: Cytotoxicity against human HCT116 cells after 72 hrs by MTT assay; format: functional, cell-based; details: HCT-116, 72 h
METRIC_NAME: IC50 (µM)

[[record]]
compound = "CC(C)[C@@H]1CC[C@]2(C(=O)O)CC[C@]3(C)[C@H](CC[C@@H]4[C@@]5(C)Cc6sc(N)nc6C(C)(C)[C@@H]5CC[C@]43C)[C@@H]12"
measured_target = "HCT-116"
metric_name = "IC50"
reported_value = 5.1

[[record]]
compound = "C=C(C)[C@@H]1CC[C@]2(C(=O)O)CC[C@]3(C)[C@H](CC[C@@H]4[C@@]5(C)C/C(=C/O)C(=O)C(C)(C)[C@@H]5CC[C@]43C)[C@@H]12"
measured_target = "HCT-116"
metric_name = "IC50"
reported_value = 12.1

[[record]]
compound = "CC(C)[C@@H]1CC[C@]2(C(=O)O)CC[C@]3(C)[C@H](CC[C@@H]4[C@@]5(C)CC(Br)C(=O)C(C)(C)[C@@H]5CC[C@]43C)[C@@H]12 (mixture of isomers)"
measured_target = "HCT-116"
metric_name = "IC50"
reported_value = 4.3

[[record]]
compound = "C=C(C)[C@@H]1CC[C@]2(C(=O)O)CC[C@]3(C)[C@H](CC[C@@H]4[C@@]5(C)Cc6c[nH]nc6C(C)(C)[C@@H]5CC[C@]43C)[C@@H]12"
measured_target = "HCT-116"
metric_name = "IC50"
reported_value = 4.5

[[record]]
compound = "CC(C)[C@@H]1CC[C@]2(C(=O)O)CC[C@]3(C)[C@H](CC[C@@H]4[C@@]5(C)CC(Br)(Br)C(=O)C(C)(C)[C@@H]5CC[C@]43C)[C@@H]12"
measured_target = "HCT-116"
metric_name = "IC50"
reported_value = 2.4

[[record]]
compound = "CC(C)[C@@H]1CC[C@]2(C(=O)O)CC[C@]3(C)[C@H](CC[C@@H]4[C@@]5(C)Cc6c[nH]nc6C(C)(C)[C@@H]5CC[C@]43C)[C@@H]12"
measured_target = "HCT-116"
metric_name = "IC50"
reported_value = 3.9

[[record]]
compound = "CC(C)[C@@H]1CC[C@]2(C(=O)O)CC[C@]3(C)[C@H](CC[C@@H]4[C@@]5(C)CCC(=O)C(C)(C)[C@@H]5CC[C@]43C)[C@@H]12 [DIHYDROBETULONIC ACID]"
measured_target = "HCT-116"
metric_name = "IC50"
reported_value = 4.1

